- assay target: MmΔIBBIMPα (Mus musculus, UniProt P52293)
- Construct: made in house
- assay text: AlphaScreen binding assay, MmΔIBBIMPα:T-ag-NLS-GFP interaction
- particulars: compounds at 10 μM; ΔIBBMmIMPα (5 nM):T-ag-NLS-GFP (30 nM); relative to 1% DMSO control
readout type: % Inhibition of IMPα-NLS Interaction MmΔIBBIMPα (%)
Expressed in %, but write only the number.

Use these answered entries as a reference point.
> print(dat)
                                   molecule  observed.measurement
1  Cl.NCC(O)c1cc(O)c(O)cc1F (centres unmarked) [6-Fluoronorepinephrine HCl]                    60
2       CC(C)(C)c1ccc(S(=O)(=O)/C=C/C#N)cc1                     9

Input: Give its % Inhibition of IMPα-NLS Interaction MmΔIBBIMPα value. Item: CC(=O)OC[C@H]1O[C@@H]([S-])[C@H](OC(C)=O)[C@@H](OC(C)=O)[C@@H]1OC(C)=O.CCP(CC)CC.[Au+]
Output: 91

Input: Query: % Inhibition of IMPα-NLS Interaction MmΔIBBIMPα; subject: COc1ccc2c(c[n+](C)c3c4cc5c(cc4ccc23)OCO5)c1OC.[Cl-]
Output: 88

* * *

- assay target: PfIMPα (Plasmodium falciparum)
- Assay type: binding
- particulars: pooled, mean ± SEM (n = 3); read-out: IC50 PfIMPα:TGS1-NLS-GFP
readout type: IC50 (nM)
Give a bare numeral; the unit nM is implied.

Input: For the molecule shown here, CC(=O)OC[C@H]1O[C@@H]([S-])[C@H](OC(C)=O)[C@@H](OC(C)=O)[C@@H]1OC(C)=O.CCP(CC)CC.[Au+] [auranofin] , give the reported IC50.
Output: 70

* * *

- assay target: PfIMPα (Plasmodium falciparum, UniProt Q8IAW0)
- Sequence (Q8IAW0 entry or part of it): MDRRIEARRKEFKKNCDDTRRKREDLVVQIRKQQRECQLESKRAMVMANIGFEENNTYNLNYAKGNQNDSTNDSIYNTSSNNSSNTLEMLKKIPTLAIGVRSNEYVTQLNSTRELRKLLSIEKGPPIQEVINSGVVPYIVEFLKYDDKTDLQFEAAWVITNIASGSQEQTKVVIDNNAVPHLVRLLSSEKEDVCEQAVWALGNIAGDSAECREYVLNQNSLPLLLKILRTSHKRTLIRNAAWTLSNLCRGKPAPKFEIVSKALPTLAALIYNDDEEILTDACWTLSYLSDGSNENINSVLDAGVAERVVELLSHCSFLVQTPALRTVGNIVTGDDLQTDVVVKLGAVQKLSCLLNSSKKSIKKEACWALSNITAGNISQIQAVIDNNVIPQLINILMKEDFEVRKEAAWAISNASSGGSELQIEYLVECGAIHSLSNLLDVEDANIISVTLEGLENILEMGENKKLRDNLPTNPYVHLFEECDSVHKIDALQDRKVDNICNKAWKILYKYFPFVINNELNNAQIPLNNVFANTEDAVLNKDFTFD
- assay text: biochemical
- Format: binding
readout type: IC50 (nM)
Report as a plain number; the unit nM is understood.

Input: Field: IC50 (PfIMPα (Plasmodium falciparum, UniProt Q8IAW0)). Entry: O=C(/C=C/c1ccc(O)c(O)c1)OCCc1ccccc1 [CAPE, Caffeic acid phenethyl ester]
Output: 1800

* * *

- Tested on: HFF cells
- assay text: MTT assay for host cell cytotoxicity
- Assay type: cell-based, human
- particulars: MTT assay, 48 h; mean ± SD (n = 2); read-out: CC50 HFF cells
readout type: CC50 (µM)
API: value field is a number in µM; no unit string.

Input: Tell me the measured CC50 of CC(=O)OC[C@H]1O[C@@H]([S-])[C@H](OC(C)=O)[C@@H](OC(C)=O)[C@@H]1OC(C)=O.CCP(CC)CC.[Au+] , please.
Output: 5.1

* * *

- System: P. falciparum 3D7 strain
- assay text: P. falciparum growth inhibition assay (HRP2 sandwich ELISA)
- Assay type: cell-based, Plasmodium falciparum
- particulars: Plasmodium falciparum, 3D7, 72 h, single typical experiment (Figure 6)
readout type: IC50 (µM)
The response must be a number in µM with no trailing unit.

> print(dat)
                                   compound  unit.tag  observed.measurement
1  C[C@H]1[C@@H](O)O[C@@H]2O[C@@]3(C)CC[C@H]4[C@H](C)CC[C@@H]1[C@@]24OO3 [DHA, dihydroartemisinin]        µM                0.0007

The record that follows has no IC50 shown yet.
Input: Form field: reported IC50 of O=C(/C=C/c1ccc(O)c(O)c1)OCCc1ccccc1 [CAPE, Caffeic acid phenethyl ester]
Output: 6.5

* * *

- assay target: MmIMPα/β heterodimer (Mus musculus)
- Construct: GST; made in house
- assay text: AlphaScreen binding assay, MmIMPα/β:T-ag-NLS-GFP interaction
- particulars: compounds at 10 μM; MmIMPα/β (5 nM):T-ag-NLS-GFP (30 nM); relative to 1% DMSO control
- Text: PfIMPα, TgIMPα, Mus musculus IMPα (MmIMPα), ΔIBBMmIMPα, and β1 (MmIMPβ) GST fusion proteins were expressed and purified essentially as previously. His-tagged TGS1-NLS-GFP, PfIMPα and TgIMPα proteins were purified using Ni^2+-affinity chromatography as described. […] Plates were read for an Alphascreen signal on an Envision plate reader (PerkinElmer, Waltham, MA, USA), with signals from the negative control wells (no bait control) on each plate subtracted.
Please note: yes (1) applies when % Inhibition of IMPα-NLS Interaction MmIMPα/β is 60% or greater, and no (0) applies otherwise.

> print(dat)
                                   compound  category.label
1  CC(=O)OC[C@H]1O[C@@H]([S-])[C@H](OC(C)=O)[C@@H](OC(C)=O)[C@@H]1OC(C)=O.CCP(CC)CC.[Au+]         yes (1)

Input: Threshold query (% Inhibition of IMPα-NLS Interaction MmIMPα/β >= 60%) on CC[n+]1c(/C=C/C=C2/N(C)c3ccccc3C2(C)C)sc2ccccc21.[I-] [AC-93253 iodide]
Output: yes (1)

Input: API: above_or_equal(metric=% Inhibition of IMPα-NLS Interaction MmIMPα/β, cutoff=60%) for item Cl.NCC(O)c1cc(O)c(O)cc1F (stereo not drawn) [6-Fluoronorepinephrine HCl]
Output: no (0)

Input: # check: % Inhibition of IMPα-NLS Interaction MmIMPα/β of COc1ccc2c(c[n+](C)c3c4cc5c(cc4ccc23)OCO5)c1OC.[Cl-] is greater than or equal to 60%
Output: yes (1)

Input: Threshold query (% Inhibition of IMPα-NLS Interaction MmIMPα/β >= 60%) on O=C(Nc1ccc(N2CCNCC2)nc1)c1oc(-c2ccccc2)nc1C(F)(F)F
Output: no (0)

Input: % Inhibition of IMPα-NLS Interaction MmIMPα/β >= 60% for CC(C)(CN)c1nc(-c2ccc(Cl)c(O)c2)c(-c2ccnc(N)n2)[nH]1 ?
Output: yes (1)

* * *

# Lookup of reported % Inhibition of IMPα-NLS Interaction PfIMPα keyed by entry
- assay target: PfIMPα (Plasmodium falciparum)
- assay text: biochemical
- Type: binding
- particulars: compounds at 10 μM; PfIMPα (10 nM):TGS1-NLS-GFP (60 nM); relative to 1% DMSO control, quadruplicate
Enter your answer as a number in %; do not include the unit.

> print(dat)
                                   compound  observed.measurement
1  Cl.NCC(O)c1cc(O)c(O)cc1F (stereo not drawn) [6-Fluoronorepinephrine HCl]                    77
2  COc1ccc2c(c[n+](C)c3c4cc5c(cc4ccc23)OCO5)c1OC.[Cl-] [Chelerythrine Cl]                    81
3  CC(C)(C)c1ccc(S(=O)(=O)/C=C/C#N)cc1 [Bay 11-7085]                    75
4  CC(=O)OC[C@H]1O[C@@H]([S-])[C@H](OC(C)=O)[C@@H](OC(C)=O)[C@@H]1OC(C)=O.CCP(CC)CC.[Au+] [auranofin]                    94
5  O=C(Nc1ccc(N2CCNCC2)nc1)c1oc(-c2ccccc2)nc1C(F)(F)F [MMV024937]                    73

Input: Give the measured % Inhibition of IMPα-NLS Interaction PfIMPα of CC[n+]1c(/C=C/C=C2/N(C)c3ccccc3C2(C)C)sc2ccccc21.[I-] [AC-93253 iodide] .
Output: 82

* * *

- assay target: T. gondii RH strain expressing the luciferase reporter (RH-Fluc)
- assay text: T. gondii tachyzoite growth inhibition assay (RH-Fluc luciferase)
- Type: cell-based, Toxoplasma gondii
- particulars: single typical experiment (Figure 7), 48 h; read-out: IC50 T. gondii
readout type: IC50 (nM)
Numeric only. Scale: nM

> print(dat)
                       compound.smiles                              assay.target  observed.measurement
1  CC(C)(C)c1ccc(S(=O)(=O)/C=C/C#N)cc1  T. gondii RH strain expressing the luciferase reporter (RH-Fluc)                  2000

The record that follows has no IC50 shown yet.
Input: # input molecule: CC(=O)OC[C@H]1O[C@@H]([S-])[C@H](OC(C)=O)[C@@H](OC(C)=O)[C@@H]1OC(C)=O.CCP(CC)CC.[Au+] ; wanted: its IC50
Output: 1900

* * *

Overview of recorded IC50 for various compounds
- assay target: MmΔIBBIMPα (Mus musculus, UniProt P52293)
- Construct: made in house
- assay text: AlphaScreen binding assay, MmΔIBBIMPα:T-ag-NLS-GFP interaction
- particulars: pooled, mean ± SEM (n = 3); read-out: IC50 MmΔIBBIMPα:T-ag-NLS
Numbers only; they are read as nM.

> print(dat)
                                   compound  readout.type  observed.measurement
1  O=C(/C=C/c1ccc(O)c(O)c1)OCCc1ccccc1 [CAPE, Caffeic acid phenethyl ester]          IC50                   700

Input: Record CC(=O)OC[C@H]1O[C@@H]([S-])[C@H](OC(C)=O)[C@@H](OC(C)=O)[C@@H]1OC(C)=O.CCP(CC)CC.[Au+] [auranofin] : what is its IC50 with MmΔIBBIMPα (Mus musculus, UniProt P52293)?
Output: 60
